Recorded values, source patent US6534546B1.

- systemName: iNOS (Type 2) (Rattus norvegicus, UniProt Q06518)
- Sequence (Q06518 whole entry, looked up): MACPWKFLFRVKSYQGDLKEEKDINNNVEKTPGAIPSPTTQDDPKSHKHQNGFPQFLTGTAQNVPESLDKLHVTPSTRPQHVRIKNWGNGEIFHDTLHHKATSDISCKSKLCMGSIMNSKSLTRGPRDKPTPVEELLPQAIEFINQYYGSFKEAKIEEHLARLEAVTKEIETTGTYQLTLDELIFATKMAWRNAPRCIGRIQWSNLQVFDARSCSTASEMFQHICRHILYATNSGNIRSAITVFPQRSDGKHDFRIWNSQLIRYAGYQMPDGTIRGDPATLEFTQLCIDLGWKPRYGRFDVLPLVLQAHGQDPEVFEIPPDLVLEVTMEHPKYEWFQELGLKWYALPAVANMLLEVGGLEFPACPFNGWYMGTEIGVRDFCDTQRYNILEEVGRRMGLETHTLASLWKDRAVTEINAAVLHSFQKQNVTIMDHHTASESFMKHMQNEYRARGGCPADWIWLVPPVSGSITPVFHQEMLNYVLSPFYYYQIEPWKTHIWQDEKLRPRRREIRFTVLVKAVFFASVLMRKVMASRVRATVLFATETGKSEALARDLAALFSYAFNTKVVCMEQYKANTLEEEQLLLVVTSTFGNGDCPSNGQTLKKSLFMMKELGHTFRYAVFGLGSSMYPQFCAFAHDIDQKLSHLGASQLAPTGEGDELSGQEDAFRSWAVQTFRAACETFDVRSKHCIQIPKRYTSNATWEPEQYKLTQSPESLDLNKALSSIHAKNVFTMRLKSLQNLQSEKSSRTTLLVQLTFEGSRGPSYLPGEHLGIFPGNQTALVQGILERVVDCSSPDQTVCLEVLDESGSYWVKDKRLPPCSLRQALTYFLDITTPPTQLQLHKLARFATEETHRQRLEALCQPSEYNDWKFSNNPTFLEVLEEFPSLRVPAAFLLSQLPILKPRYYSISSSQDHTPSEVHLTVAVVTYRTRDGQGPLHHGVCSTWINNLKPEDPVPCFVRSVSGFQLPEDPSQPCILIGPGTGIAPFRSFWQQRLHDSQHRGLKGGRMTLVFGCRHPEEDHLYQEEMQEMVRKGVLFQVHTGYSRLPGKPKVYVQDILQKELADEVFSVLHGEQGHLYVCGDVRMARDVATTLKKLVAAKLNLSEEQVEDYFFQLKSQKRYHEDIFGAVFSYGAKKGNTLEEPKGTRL
- experiment: biochemical
- Assay type: biochemical
- assayContext: index of selectivity
quantityName: Ratio of IC50 values E-cNOS/iNOS

INSERT INTO measurements (molecule, systemname, recordedresult) VALUES
  ('CCSC(=N)Nc1ccc(CCN)cc1.Cl.Cl', 'iNOS (Type 2) (Rattus norvegicus, UniProt Q06518)', 1.4),
  ('CSC(=N)Nc1cccc(C(C)(C)N)c1.Cl.Cl', 'iNOS (Type 2) (Rattus norvegicus, UniProt Q06518)', 1.0),
  ('CCSC(=N)Nc1cccc(C(C)(C)N)c1.Cl.Cl', 'iNOS (Type 2) (Rattus norvegicus, UniProt Q06518)', 6.9);

Let us examine a further case.
Report Ratio of IC50 values E-cNOS/iNOS for "CSC(=N)Nc1cccc(CN)c1.Cl.Cl" please.
0.3

###

- systemName: E-cNOS (Type 3) (Bos taurus)
- Construct: the resulting supernatant was used as the crude enzyme sample of E-cNOS; endogenous in cells; host or cells: CPAE (cow pulmonary arterial endothelium cells), 1% Triton X-100 extract, 100,000 x g supernatant
- Sequence (P29473 2-1205): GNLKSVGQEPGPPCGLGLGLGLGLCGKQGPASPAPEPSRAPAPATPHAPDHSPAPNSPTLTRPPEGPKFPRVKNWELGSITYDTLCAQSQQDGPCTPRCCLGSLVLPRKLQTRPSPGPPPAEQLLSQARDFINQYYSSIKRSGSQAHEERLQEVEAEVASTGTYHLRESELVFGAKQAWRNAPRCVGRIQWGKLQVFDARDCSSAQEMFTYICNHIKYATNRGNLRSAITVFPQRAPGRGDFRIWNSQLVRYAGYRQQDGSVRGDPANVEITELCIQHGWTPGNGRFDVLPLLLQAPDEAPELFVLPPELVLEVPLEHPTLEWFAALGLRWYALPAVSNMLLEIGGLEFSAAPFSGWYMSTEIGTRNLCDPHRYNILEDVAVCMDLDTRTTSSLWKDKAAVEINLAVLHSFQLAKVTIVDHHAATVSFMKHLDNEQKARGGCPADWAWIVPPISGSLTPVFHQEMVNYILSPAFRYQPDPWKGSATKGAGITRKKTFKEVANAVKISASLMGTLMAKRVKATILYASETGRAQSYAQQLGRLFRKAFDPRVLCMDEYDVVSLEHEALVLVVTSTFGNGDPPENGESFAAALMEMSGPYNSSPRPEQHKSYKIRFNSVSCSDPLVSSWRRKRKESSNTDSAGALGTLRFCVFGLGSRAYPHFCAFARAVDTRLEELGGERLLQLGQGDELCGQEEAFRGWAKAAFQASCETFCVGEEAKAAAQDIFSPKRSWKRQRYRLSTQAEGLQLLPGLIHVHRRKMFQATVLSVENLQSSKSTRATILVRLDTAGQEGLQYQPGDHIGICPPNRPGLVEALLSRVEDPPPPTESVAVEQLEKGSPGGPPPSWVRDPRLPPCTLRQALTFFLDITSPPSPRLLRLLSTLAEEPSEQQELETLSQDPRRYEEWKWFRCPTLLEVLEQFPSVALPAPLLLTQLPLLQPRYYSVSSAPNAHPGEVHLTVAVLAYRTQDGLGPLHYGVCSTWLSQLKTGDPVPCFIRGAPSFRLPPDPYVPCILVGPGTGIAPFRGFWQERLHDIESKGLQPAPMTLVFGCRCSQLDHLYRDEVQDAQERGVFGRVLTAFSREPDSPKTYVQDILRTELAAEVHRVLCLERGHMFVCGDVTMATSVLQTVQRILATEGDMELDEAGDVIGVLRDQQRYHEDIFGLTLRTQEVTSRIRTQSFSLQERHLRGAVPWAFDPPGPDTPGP
- experiment: biochemical
- assayContext: mean of one to four independent experiments; crude enzyme, 100 nM L-[3H]arginine; read-out: IC50 value, E-cNOS (Type 3)
Counter-ions that a name gives are not always drawn.
Checkbox rule: IC50 lower than 1000 nM = y; IC50 not lower than 1000 nM = n.

Solved cases below.
INSERT INTO assay_data (compound, classification) VALUES
  ('CCSC(=N)Nc1ccc(C(CN)C(=O)OC)cc1 (stereo not shown) [Example 226, dihydrochloride]', 'n'),
  ('COC(=O)[C@@H](N)CCCNC(=N)N[N+](=O)[O-] [L-NAME, N^G-nitro-L-arginine methyl ester, reference compound]', 'y'),
  ('NCc1cc(NC(N)=N[N+](=O)[O-])ccc1OCc1ccccc1 [Example 341, hydrochloride]', 'y'),
  ('CCSC(=N)Nc1cccc(CNN)c1 [Example 355, trihydrochloride]', 'y'),
  ('CCSC(=N)Nc1ccc(N(C)CC)c(CN)c1 [Example 288, trihydrochloride]', 'n');

Does the reported IC50 of the following compound sit strictly below 1000 nM? CCN=C(N)Nc1cccc(C2(N)CCC2)c1 [Example 238, dihydrochloride]
n
